tested on: P12-Ichikawa; assay: AUC of viability dose-response curve (% viability x log10 dose units); higher = less sensitive; conditions: RPMI 5 mM glucose + 10% dialyzed FBS; 48 h
Give AUC of viability dose-response curve for every item shown.
One number for each entry.

Solved cases below.
Compound	AUC of viability dose-response curve
CC(=O)[C@H]1CC[C@H]2[C@@H]3C/C=C4/C[C@@H](O)CC[C@]4(C)[C@H]3CC[C@]12C	463
CC1(C)CCC(=C(\C1)C2=CC=C(Cl)C=C2)/CN3CCN(CC3)C4=CC(=C(C=C4)C(=O)N[S+]([O-])(=O)C5=CC=C(NCC6CCOCC6)C(=C5)[N+]([O-])=O)OC7=CN=C8[NH]C=CC8=C7	449
CN1CCC(=C2c3ccccc3CCc3sccc32)CC1	465

// each compound listed below needs its AUC of viability dose-response curve
1. COCCNCCCn1c(C(=O)CF)c(-c2ccc(C)cc2)c2c(N)ncnc21
2. C=CC[N+]1([C@H]2C[C@H]3[C@@H]4CC[C@H]5C[C@H](O)[C@@H](N6CCOCC6)C[C@]5(C)[C@H]4CC[C@]3(C)[C@H]2OC(C)=O)CCCC1
3. COC(=O)Nc1nc2cc(Sc3ccccc3)ccc2[nH]1
4. NC(=O)[C@@H](CCC(F)(F)F)N(Cc1ccc(-c2ncon2)cc1F)[S+](=O)([O-])c1ccc(Cl)cc1

448
462
382
403

These entries and their values trace back to the supplement of paper PMC11451515.
